Test system: SNB-75 CNS
Test: NCI-60 one-dose screen, 48 h (100 = growth as untreated, 0 = no growth, -100 = all killed)
Details: 10 µM
The panel holds about 83,000 compounds, 20% with a hit somewhere; the sample as a whole holds those more often.
Exercise: for every item that follows, state its recorded growth.
One number for each entry, in %.

Worked examples, 2 compounds total:
COc1cc(/C=C/C(=O)c2ccc(F)cc2)ccc1Oc1nc(Nc2ccc(F)cc2)nc(N(C)C)n1
72.5
CCOc1ccc(Nc2nc3ccccc3nc2Nc2ccc(OCC)cc2)cc1
90.9

Please go through the list and note growth for each compound.
1. COc1cc2c(cc1OC)/C(=C\c1sc(Nc3ccc(O)cc3)nc1O)C(C(=O)O)=N2
2. O=c1c2ccccc2nc(COc2ccccc2)n1/N=C/c1ccc(N2CCCC2)cc1
3. O=S(=O)(Nc1ncccn1)c1ccc(-n2c(-c3ccccc3)nc(-c3ccccc3)c2-c2ccccc2)cc1
4. N#Cc1ccc(NC(=O)CSc2ccc(-c3ccc(Br)cc3)nn2)cc1
5. COc1ccc2nc(Cl)c(-c3cc(-c4ccccc4)nc(N)n3)cc2c1
6. O=C(c1ccc(O)cc1)C1[C@H](c2ccc(Br)cc2)[C@@H](c2ccccc2)NC12C(=O)Nc1ccc(Br)cc12 (stereo not given in full)

Reply |
1. -16.4
2. 108
3. 77.2
4. 76
5. -1.67
6. 45.8

Please go through the list and note growth for each compound.
1. CC(=O)NNc1ccc2nnc(-c3ccc(Br)cc3)n2n1
2. O=C(Nc1cccc([N+](=O)[O-])c1)Nc1cccc([N+](=O)[O-])c1

Reply |
1: 121; 2: 90.5

====

Test system: NCI-H23 lung
Test: NCI-60 one-dose screen, 48 h
Settings: 10 µM
This is part of a sample that, as a whole, favours compounds with a hit. Of some 83,000 tested, about 20% had one in any assay. Calls of active or inactive are those of the source. How the source made its calls: active means growth percent below 10; inactive means the rest.
Please reply with one of these outcomes: active, inactive

COc1cc2c3c(n(CCCNCCO)c(=O)c2cc1OC)-c1nc2c(cc1C3=O)OCO2
active
O=C(c1ccc(Cl)cc1)C1[C@H](c2ccccc2Br)[C@@H](c2ccccc2)NC12C(=O)Nc1ccc(Cl)cc12 (stereo not given in full)
active
Cc1nc2c(cnn2-c2ccccc2)c(=O)n1-c1ccc(NC(=O)c2ccc(F)cc2)cc1
inactive
Cc1ccc(-c2cc(C(=O)N=Nc3c(O)[nH]c4ccc(Br)cc34)c3ccccc3n2)cc1
inactive

Ask | Kindly provide the recorded test outcome for the following compound: CS(=O)(=O)Nc1ccc(-c2ccc3c(c2)ncn3-c2ccc(NC(=O)Nc3ccc(Br)cc3)cc2)cc1
Reply | active

Ask | Kindly provide the recorded test outcome for the following compound: CN1C(=O)N(C)C2SC(N/N=C/c3ccccc3F)=NC21 (stereo not given)
Reply | inactive

Ask | Kindly provide the recorded test outcome for the following compound: COc1ccc(C2N(c3ccc(Br)cc3)N=C(C(C)=O)N2[C@H]2[C@H](OC(C)=O)O[C@H](COC(C)=O)[C@@H](OC(C)=O)[C@@H]2OC(C)=O)cc1 (stereo not given in full)
Reply | inactive

====

System: UACC-257 melanoma
Test: NCI-60 one-dose screen, 48 h (100 = growth as untreated, 0 = no growth, -100 = all killed)
Conditions: 10 µM
About 83,000 compounds went through this panel and 20% of them were active in at least one assay; those are over-represented in the sample as a whole.
# label = 1.0 if growth >= 70% else 0.0

For orientation, consider the following solved cases.
O=c1cc(-c2ccccc2)oc2cc(OCCCCNCc3ccccc3)cc(O)c12
0.0
Cc1ccc(-c2cc(-c3cc4ccccc4nc3Cl)[nH]c(=S)n2)cc1
0.0
COc1cccc(/C=C2\N=C(C)N(CCc3ccc(S(N)(=O)=O)cc3)C2=O)c1
1.0

Moving on to another compound below.
Ask | Given CC(C)C1=C[C@@]23CC[C@@H]4[C@](C)(CCC[C@]4(C)C(=O)NCc4ccccc4)[C@H]2C[C@@H]1[C@H]1C(=O)CCC(=O)[C@H]13 , state whether its growth is at least 70%.
Reply | 1.0

====

System: KM12 colon
Experiment: NCI-60 one-dose screen, 48 h
Conditions: 10 µM
About 83,000 compounds went through this panel and 20% of them were active in at least one assay; those are over-represented in the sample as a whole. Active and inactive are the calls of the source. Rule for the calls: active = growth percent below 10; inactive = the rest.
Please reply with one of these outcomes: active, inactive

N#Cc1ccc(-c2nn(-c3ccc(C(=O)O)cc3)cc2CNc2ccc(Oc3ccccc3)cc2)cc1
inactive
CN(C(=O)c1ccc(C(C)(C)C)cc1)c1sc2c(c1C#N)CCC(=O)C2
active
C=CC(=O)Nc1ccc(C(=O)/C=C/c2ccc(N(C)CCF)cc2)c(O)c1
active
C=C1CC[C@H](C(=C)C)[C@H]2C=C(C)C(=O)C3=C(C(=O)[C@@](C)(O)C3)[C@H]12
active
Cc1ccn2c(C(=O)c3ccc(Br)cc3)cc(-c3cc(-c4ccc(N(C)C)cc4)c(C#N)c(N)n3)c2c1
inactive

Ask | Kindly provide the recorded test outcome for the following compound: N#Cc1c(NC(=O)c2ccc(C(F)(F)F)cc2)sc2c1CCC(O)=C2
Reply | inactive

Ask | Kindly provide the recorded test outcome for the following compound: O=C(CSc1nnc(-c2c[nH]c3ccccc23)n1-c1ccccc1)Nc1ccc(C(=O)/C=C/c2ccc(Br)cc2)cc1
Reply | inactive

Ask | Kindly provide the recorded test outcome for the following compound: CN1CCCN(Cc2ccc(C(=O)Nc3cccc(Nc4ccc5cc(O)ccc5n4)c3)cc2C(F)(F)F)CC1
Reply | inactive

Ask | Kindly provide the recorded test outcome for the following compound: COc1ccc(-c2nc(S(=O)(=O)c3ccc(C)cc3)c(S(=O)(=O)CC(=O)N(C)Cc3ccccc3)o2)cc1
Reply | inactive

Ask | Kindly provide the recorded test outcome for the following compound: COc1cccc(-c2ccc(/C=N/NC(=O)c3[nH]c4ccc(Br)cc4c3-c3ccccc3)o2)c1
Reply | inactive

Ask | Kindly provide the recorded test outcome for the following compound: CCOc1ccc(/C=N/NC(=O)Cn2nc(Cc3ccccc3)c3onc(C)c3c2=O)cc1
Reply | inactive

Ask | Kindly provide the recorded test outcome for the following compound: O=C1Nc2cc(-c3ccc(NC(=O)c4cccs4)cc3)ccc2/C1=C/c1ccc[nH]1
Reply | inactive

Ask | Kindly provide the recorded test outcome for the following compound: O=C(c1ccc(Cl)cc1)C1[C@H](c2ccccc2Br)[C@@H](c2ccccc2)NC12C(=O)Nc1ccc(Br)cc12 (some centres undefined)
Reply | inactive

Ask | Kindly provide the recorded test outcome for the following compound: O=C(CSc1nnc(-c2ccc3nc(-c4ccc(Cl)cc4)[nH]c3c2)o1)Nc1ccc(Br)cc1
Reply | inactive

Ask | Kindly provide the recorded test outcome for the following compound: N#Cc1c(NC(=O)c2cccc(C(F)(F)F)c2)sc2c1CCC(O)=C2
Reply | inactive

Ask | Kindly provide the recorded test outcome for the following compound: COc1cccc(C(N)=Nc2ccc(OCCCCCCn3cncn3)cc2)c1
Reply | inactive

Ask | Kindly provide the recorded test outcome for the following compound: Cc1ccc(C(=O)Nc2ccc(-n3c(C)nc4c(cnn4-c4ccccc4)c3=O)cc2)cc1
Reply | inactive

Ask | Kindly provide the recorded test outcome for the following compound: O=C(Nc1cccc(C(F)(F)F)c1)c1cncc(C#Cc2cnc3ccc(N4CCOCC4)nn23)c1
Reply | active

Ask | Kindly provide the recorded test outcome for the following compound: COc1ccc2ncc(C#Cc3cncc(C(=O)Nc4ccc(CN5CCN(C)CC5)c(C(F)(F)F)c4)c3)n2n1
Reply | active

Ask | Kindly provide the recorded test outcome for the following compound: COc1ccccc1[C@H]1C(C(=O)c2ccc(Cl)cc2)C2(N[C@@H]1c1ccccc1)C(=O)Nc1ccccc12 (some centres undefined)
Reply | active

Ask | Kindly provide the recorded test outcome for the following compound: Cc1ccc(-c2nc3ccc(C(=O)N=Nc4c(O)[nH]c5ccc([N+](=O)[O-])cc45)cc3[nH]2)cc1
Reply | inactive

Ask | Kindly provide the recorded test outcome for the following compound: O=C(/C=C/Nc1ccccc1)c1ccc2c(c1)Nc1ccccc1S2
Reply | inactive

Ask | Kindly provide the recorded test outcome for the following compound: CC(=O)Nc1nc(-c2ccc(N3CCN(C)CC3)c(NS(=O)(=O)c3ccc(C(F)(F)F)cc3)c2)cs1
Reply | active

Ask | Kindly provide the recorded test outcome for the following compound: CCOC(=O)C(Cc1ccccc1)N1C(=O)/C(=C/N2N=C(c3ccc(OC)cc3)CC2c2ccc3ccccc3c2)SC1=S (centres undefined)
Reply | active

Ask | Kindly provide the recorded test outcome for the following compound: Cc1cc(C)nc(SCC(=O)Nc2ccc(S(N)(=O)=O)cc2)n1
Reply | inactive

Ask | Kindly provide the recorded test outcome for the following compound: O=C(Cc1ccc2c(c1)CN(C1CCC(=O)NC1=O)C2=O)NCCc1ccccc1 (centres undefined)
Reply | active

Ask | Kindly provide the recorded test outcome for the following compound: COc1cc(/C=C/C(=O)c2ccc(C(F)(F)F)cc2)ccc1Oc1nc(Nc2ccc(F)cc2)nc(N(C)C)n1
Reply | inactive

Ask | Kindly provide the recorded test outcome for the following compound: Cc1cc(=O)oc2cc(OCCCCOc3ccc(/C=C/C(=O)Nc4ccccc4[N+](=O)[O-])cc3)ccc12
Reply | inactive

Ask | Kindly provide the recorded test outcome for the following compound: Clc1cccc(N/N=C/c2c[nH]c3ccccc23)n1
Reply | active
